tested_target: FGFR4 kinase domain recombinant protein (Homo sapiens, UniProt P22455)
Sequence (P22455 467-755 limits assumed): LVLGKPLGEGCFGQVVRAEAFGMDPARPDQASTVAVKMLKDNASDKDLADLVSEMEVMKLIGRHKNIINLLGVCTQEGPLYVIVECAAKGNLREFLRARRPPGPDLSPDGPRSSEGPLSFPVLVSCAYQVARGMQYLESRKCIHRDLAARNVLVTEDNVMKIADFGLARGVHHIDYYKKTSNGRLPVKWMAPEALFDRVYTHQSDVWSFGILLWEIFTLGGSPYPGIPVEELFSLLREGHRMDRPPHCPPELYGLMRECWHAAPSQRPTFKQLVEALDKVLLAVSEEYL
protocol_notes: FGFR4 enzyme activity at molecular level (ELISA, Poly(Glu,Tyr) 4:1 substrate)
pIC50: −log10 of the molar value.
assay_readout: pIC50

COc1cc(C)cc2cc(-c3cn(C4CN(C(=O)/C=C/CN(C)C)C4)c4ncnc(N)c34)sc12 | 7.00 to 8.00
COc1cc(C)cc2cc(-c3cn(C4CCN(C(=O)/C=C/CN(C)C(C)C)C4)c4ncnc(N)c34)sc12 (stereo not drawn) | 7.00 to 8.00
C=C(CN1CCCCC1)C(=O)N1CC[C@H](n2cc(-c3cc4cc(C)cc(OC)c4s3)c3c(N)ncnc32)C1 | > 8.00
COc1cc(C)cc2cc(-c3nn([C@H]4CCN(C(=O)/C=C/CN(C)C)C4)c4ncnc(N)c34)sc12 | < 7.00
C=CC(=O)N1CCC(Cn2cc(-c3cc4cc(C)cc(OC)c4s3)c3c(N)ncnc32)C1 (stereo not drawn) | 7.00 to 8.00
C#CC(=O)N1CC(n2nc(-c3cc4cc(C)cc(OC)c4s3)c3c(N)ncnc32)C1 | 7.00 to 8.00

Sample `C=CC(=O)N1CC(n2cc(-c3cc4cc(C)cc(OC)c4o3)c3c(N)ncnc32)C1` , system: FGFR4 kinase domain recombinant protein (Homo sapiens, UniProt P22455). Its pIC50 is < 7.00

# `C=C(CN1CCCC1)C(=O)N1CC(n2cc(-c3cc4cc(C)cc(OC)c4s3)c3c(N)ncnc32)C1` with FGFR4 kinase domain recombinant protein (Homo sapiens, UniProt P22455): pIC50 is > 8.00

C=CC(=O)N1CCC(n2cc(-c3ccoc3)c3c(N)ncnc32)C1 (stereo not drawn) tested on FGFR4 kinase domain recombinant protein (Homo sapiens, UniProt P22455) gave pIC50: < 7.00

Lab entry: FGFR4 kinase domain recombinant protein (Homo sapiens, UniProt P22455) assay, molecule `COc1cc(C)cc2cc(-c3cn(C4CN(C(=O)/C=C/CN5CCCC5)C4)c4ncnc(N)c34)sc12` , pIC50 = 7.00 to 8.00

// returns pIC50 for C/C=C/C(=O)N1CCC(n2cc(-c3cc4cc(C)cc(OC)c4s3)c3c(N)ncnc32)C1 (stereo not drawn) with FGFR4 kinase domain recombinant protein (Homo sapiens, UniProt P22455); value = 7.00 to 8.00

The reported FGFR4 kinase domain recombinant protein (Homo sapiens, UniProt P22455) pIC50 of COc1cc(C)cc2cc(-c3cn(C4CCN(C(=O)/C=C/CN5CCC(O)CC5)C4)c4ncnc(N)c34)sc12 (stereo not drawn) is 7.00 to 8.00

====

tested_target: FGFR4 kinase domain recombinant protein (Homo sapiens, UniProt P22455)
protocol_notes: FGFR4 enzyme activity at molecular level (ELISA, Poly(Glu,Tyr) 4:1 substrate)
pIC50: −log10 of the molar value.
Reported pIC50 is given for each of the following molecules.

Briefly, pIC50 measured for C=CC(=O)N1CCC(n2cc(-c3cc4cc(C(F)(F)F)cc(OC)c4s3)c3c(N)ncnc32)C1 (centres unmarked) : > 8.00

====

tested_target: FGFR1 kinase domain recombinant protein (Homo sapiens, UniProt P11362)
Sequence (P11362 478-767 limits assumed): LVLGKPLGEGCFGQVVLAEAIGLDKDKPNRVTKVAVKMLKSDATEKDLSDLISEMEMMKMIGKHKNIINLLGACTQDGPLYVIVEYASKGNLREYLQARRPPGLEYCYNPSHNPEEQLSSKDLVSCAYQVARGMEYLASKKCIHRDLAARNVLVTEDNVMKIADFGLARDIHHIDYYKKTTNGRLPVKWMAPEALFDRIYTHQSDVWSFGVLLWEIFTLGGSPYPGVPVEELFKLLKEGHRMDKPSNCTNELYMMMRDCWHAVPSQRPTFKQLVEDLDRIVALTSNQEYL
protocol_notes: FGFR1 enzyme activity at molecular level (ELISA, Poly(Glu,Tyr) 4:1 substrate)
pIC50: −log10 of the molar value.
Readings of pIC50 for the listed compounds

Measured pIC50, C=CC(=O)N1CCC(n2cc(-c3ccc4[nH]c(C)nc4c3)c3c(N)ncnc32)C1 (stereo not shown) : 7.00 to 8.00

====

tested_target: FGFR4 kinase domain recombinant protein (Homo sapiens, UniProt P22455)
protocol_notes: FGFR4 enzyme activity at molecular level (ELISA, Poly(Glu,Tyr) 4:1 substrate)
Each entry below lists one item and its recorded IC50 value.

Consider the reported IC50 for these compounds:
C=C(F)C(=O)N1CC(n2cc(-c3cc4cc(C)cc(OC)c4s3)c3c(N)ncnc32)C1 | 0.01 to 0.1 µM
C=CC(=O)N1CCC(n2cc(-c3ccc4[nH]c(C)nc4c3)c3c(N)ncnc32)C1 (stereo not shown) | 0.01 to 0.1 µM
COc1cc(C)cc2cc(-c3cn(C4CCN(C(=O)OC(C)(C)C)C4)c4ncnc(N)c34)sc12 (stereo not shown) | > 0.1 µM
C=CC(=O)N1CCC(n2cc(-c3ccc4c(N)n[nH]c4c3)c3c(N)ncnc32)C1 (stereo not shown) | > 0.1 µM
C=CC(=O)N1CCC(n2cc(-c3cc4cc(C(=O)O)cc(OC)c4s3)c3c(N)ncnc32)C1 (stereo not shown) | > 0.1 µM

Lab note: measured IC50 of `C=C(CN1CCOCC1)C(=O)N1CC(n2cc(-c3cc4cc(C)cc(OC)c4s3)c3c(N)ncnc32)C1` was < 0.01 µM

Lab note: CCN(C)C/C=C/C(=O)N1CCC(n2cc(-c3cc4cc(C)cc(OC)c4s3)c3c(N)ncnc32)C1 (stereo not shown) gave IC50 of 0.01 to 0.1 µM

// C=CC(=O)N1CCC(n2cc(-c3cc4cc(C)cc(OC)c4s3)c3c(N)ncnc32)C1 (stereo not shown) : IC50 value = < 0.01 µM

Documented IC50 of COc1cc(C)cc2cc(-c3cn(C4CCN(C(=O)/C=C/CN5CCCC5)C4)c4ncnc(N)c34)sc12 (stereo not shown) : 0.01 to 0.1 µM

Lab book: IC50 of `C=C(CN1CCN(C)CC1)C(=O)N1CC(n2cc(-c3cc4cc(C)cc(OC)c4s3)c3c(N)ncnc32)C1` noted as < 0.01 µM

Noted for C=CC(=O)N1CCC(n2cc(-c3ccncc3)c3c(N)ncnc32)C1 (stereo not shown) : its IC50 reads > 0.1 µM

Reported IC50 of COc1cc(C)cc2cc(-c3cn(C4CCN(C(=O)/C=C/CN5CCCCC5)C4)c4ncnc(N)c34)sc12 (stereo not shown) : 0.01 to 0.1 µM

====

Items are presented alongside their recorded pIC50.
tested_target: FGFR4 kinase domain recombinant protein (Homo sapiens, UniProt P22455)
protocol_notes: FGFR4 enzyme activity at molecular level (ELISA, Poly(Glu,Tyr) 4:1 substrate)
pIC50: −log10 of the molar value.

Illustrative cases are given below, each with its answer.
C=C(CN1CCOCC1)C(=O)N1CC[C@H](n2cc(-c3cc4cc(C)cc(OC)c4s3)c3c(N)ncnc32)C1 | > 8.00
COc1cc(C)cc2cc(-c3cn(C4CCNC4)c4ncnc(N)c34)sc12 (stereo not shown) | < 7.00
C#CC(=O)N1CC[C@H](n2nc(-c3cc4cc(C)cc(OC)c4s3)c3c(N)ncnc32)C1 | > 8.00

Continue with the next compound.
Looking up `C=C(CN(CC)CC)C(=O)N1CC(n2cc(-c3cc4cc(C)cc(OC)c4s3)c3c(N)ncnc32)C1` , I found its pIC50 recorded as > 8.00

====

tested_target: FGFR1 kinase domain recombinant protein (Homo sapiens)
protocol_notes: FGFR1 enzyme activity at molecular level (ELISA, Poly(Glu,Tyr) 4:1 substrate)
pIC50: −log10 of the molar value.
assay_readout: pIC50

Log: FGFR1 kinase domain recombinant protein (Homo sapiens), molecule COc1cc(C)cc2cc(-c3cn(C4CCN(C(=O)/C=C/CN(C)C(C)C)C4)c4ncnc(N)c34)sc12 (centres unmarked) , pIC50 = > 8.00

====

tested_target: FGFR1 kinase domain recombinant protein (Homo sapiens, UniProt P11362)
protocol_notes: FGFR1 enzyme activity at molecular level (ELISA, Poly(Glu,Tyr) 4:1 substrate)
Listing of entries alongside the reported IC50.

Examples with answers:
COc1cc(C)cc2cc(-c3cn(C4CCN(C(=O)/C=C/CN5CCC(F)C5)C4)c4ncnc(N)c34)sc12 (stereo not drawn) | < 10 nM
C=CS(=O)(=O)N1CC(n2cc(-c3cc4cc(C)cc(OC)c4s3)c3c(N)ncnc32)C1 | < 10 nM
C=C(CN1CCOCC1)C(=O)N1CC(n2nc(-c3cc4cc(C)cc(OC)c4s3)c3c(N)ncnc32)C1 | < 10 nM
C=C(CN(CC)CC)C(=O)N1CC[C@H](n2cc(-c3cc4cc(C)cc(OC)c4s3)c3c(N)ncnc32)C1 | 10 to 100 nM
C=CC(=O)N1CCC(Cn2cc(-c3cc4cc(C)cc(OC)c4s3)c3c(N)ncnc32)C1 (stereo not drawn) | 10 to 100 nM

Note to self: IC50 recorded for `COc1cc(C)cc2cc(-c3cn(CCN4CCOCC4)c4ncnc(N)c34)sc12` was 10 to 100 nM

// IC50 lookup, compound = `C=C(CN(CC)CC)C(=O)N1CC(n2cc(-c3cc4cc(C)cc(OC)c4s3)c3c(N)ncnc32)C1` , result: < 10 nM

get_value(item= COCCN(C)C/C=C/C(=O)N1CCC(n2cc(-c3cc4cc(C)cc(OC)c4s3)c3c(N)ncnc32)C1 (stereo not drawn) , readout=IC50) returns < 10 nM

Looking up C=CC(=O)N1CCC(n2cc(-c3cc4cc(C(=O)O)cc(OC)c4s3)c3c(N)ncnc32)C1 (stereo not drawn) , I found its IC50 recorded as > 100 nM
